Origin of measurements: patent US12162820B2

molecular target: ATX (autotaxin) (Homo sapiens, UniProt Q13822); construct: purchased Cayman 10803; assay: Autotaxin Inhibition Screening Assay (choline release from LPC, LPC-CR); assay type: biochemical; details: 50 μM compound
Quantity kind: inhibition at 50 µM

>>> reported("O=C(CCCCC(=O)N1CCN(C(=O)c2ccc3c(c2)CC/C(=C\\c2cc(C(F)(F)F)cc(C(F)(F)F)c2)C3=O)CC1)NO")
"> 80%"
>>> reported("O=C(/C=C/c1ccc2c(c1)CCC2NC(=O)c1ccc(F)cc1)NCCCCCC(=O)NO (stereo not drawn)")
"< 50%"
>>> reported("COc1ccc(S(=O)(=O)NC2CCc3cc(/C=C/C(=O)NO)ccc32)cc1 (stereo not drawn)")
"< 50%"
>>> reported("O=C(CCCCC(=O)Nc1ccc2c(c1)CC/C(=C\\c1cc(C(F)(F)F)cc(C(F)(F)F)c1)C2=O)NO")
"> 80%"
>>> reported("O=C(NO)c1ccc(COc2ccc3c(c2)CC(Cc2cc(C(F)(F)F)cc(C(F)(F)F)c2)C3=O)cc1 (stereo not drawn)")
"> 80%"
>>> reported("Cc1[nH]c2ccccc2c1CCNC1CCCc2cc(/C=C/C(=O)Nc3ccc(F)cc3N)ccc21 (stereo not drawn)")
"< 50%"
>>> reported("Nc1cc(F)ccc1NC(=O)/C=C/c1ccc(COc2ccc3c(c2)CC/C(=C\\c2cc(C(F)(F)F)cc(C(F)(F)F)c2)C3=O)cc1")
"< 50%"
>>> reported("Cc1[nH]c2ccccc2c1CCNC1CCc2cc(/C=C/C(=O)Nc3ccc(F)cc3N)ccc21 (stereo not drawn)")
"< 50%"

Consider the record given below.
Query string: Quick check: inhibition at 50 µM of COc1ccc(N2C(=O)CN(C3CCc4cc(/C=C/C(=O)NO)ccc43)C2=O)cc1 (stereo not drawn) ?
Result string: < 50%

====

This listing pairs compounds with measured inhibition at 2 µM.
target: HDAC2 (Homo sapiens); construct: purchased Enzo Life Sciences; experiment: HDAC Inhibition Screening Assay (FLUOR DE LYS Fluorimetric Drug Discovery Kit), HDAC2; type: biochemical; settings: 2 μM compound
Sequence (Q92769 whole entry): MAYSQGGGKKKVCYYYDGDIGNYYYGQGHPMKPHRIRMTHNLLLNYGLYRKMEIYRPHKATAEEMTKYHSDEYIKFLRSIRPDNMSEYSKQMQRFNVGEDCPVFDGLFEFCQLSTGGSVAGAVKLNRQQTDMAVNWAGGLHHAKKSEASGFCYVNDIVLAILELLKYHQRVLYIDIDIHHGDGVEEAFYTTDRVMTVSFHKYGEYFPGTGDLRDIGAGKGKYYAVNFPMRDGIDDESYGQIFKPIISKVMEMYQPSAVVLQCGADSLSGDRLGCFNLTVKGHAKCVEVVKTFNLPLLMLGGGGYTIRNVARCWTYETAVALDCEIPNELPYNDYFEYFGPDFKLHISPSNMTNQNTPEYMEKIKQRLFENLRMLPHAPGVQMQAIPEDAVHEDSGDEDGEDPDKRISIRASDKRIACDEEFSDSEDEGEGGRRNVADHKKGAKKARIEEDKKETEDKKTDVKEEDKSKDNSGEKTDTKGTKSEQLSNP

>>> reported("Cc1[nH]c2ccccc2c1CCNC1CCc2cc(/C=C/C(=O)NO)ccc21 (stereo not shown) [Compound 60]")
"> 80%"
>>> reported("O=C(/C=C/c1ccc2c(c1)CCC2NC(=O)CCCCCCC(=O)NO)Nc1cc(Cl)cc(Cl)c1 (stereo not shown) [Compound 42]")
"50 to 80%"
>>> reported("Nc1cc(F)ccc1NC(=O)CCCCNC(=O)c1ccc2c(c1)CC/C(=C\\c1cc(C(F)(F)F)cc(C(F)(F)F)c1)C2=O [Compound 80]")
"< 50%"
>>> reported("Cc1ccc(S(=O)(=O)NC2CCc3cc(/C=C/C(=O)NO)ccc32)cc1 (stereo not shown) [Compound 16]")
"> 80%"

Query string: Quick check: inhibition at 2 µM of COc1ccc(S(=O)(=O)NC2CCc3cc(/C=C/C(=O)NO)ccc32)cc1 (stereo not shown) [Compound 20] ?
Result string: 50 to 80%

Query string: Quick check: inhibition at 2 µM of COc1ccc(S(=O)(=O)NC2CCc3cc(/C=C/C(=O)Nc4ccc(F)cc4N)ccc32)cc1 (stereo not shown) [Compound 19] ?
Result string: < 50%

Query string: Quick check: inhibition at 2 µM of COc1ccc2c(c1)CCC2NC(=O)CCCCCCC(=O)Nc1ccc(F)cc1N (stereo not shown) [Compound 43] ?
Result string: < 50%
